# Test system: IgE antibodies from patients
# ASSAY_PROTOCOL: Wheat epitope mapping (2): overlapping 10-amino-acid peptide fragments shifted by one amino acid;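 note: key = sequence deemed particularly important within the common 15-residue sequence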
# Assay type: binding, human
# APPLIED_CONDITIONS: serum of patient P34 (WDEIA); sequence without X
MEASURE_NAME: Rank of partial sequence as epitope binding to IgE antibody

For orientation, consider the following solved cases.
{"SUBSTANCE": "1484 (YLQPQQP; REGION 1..7: note = epitope) [compound 1484]", "RESULT": "Key"}
{"SUBSTANCE": "1483 (YLQPQQPIS; REGION 1..9: note = epitope) [compound 1483]", "RESULT": "Preferably"}
{"SUBSTANCE": "1547 (QVPLVQQQQ; REGION 1..9: note = epitope) [compound 1547]", "RESULT": "More preferably"}
{"SUBSTANCE": "1485 (SQQQA; REGION 1..5: note = epitope) [compound 1485]", "RESULT": "Key"}
{"SUBSTANCE": "1639 (YNPDKV; REGION 1..6: note = epitope) [compound 1639]", "RESULT": "Key"}

IN: Supply Rank of partial sequence as epitope binding to IgE antibody value. Item: 1482 (YLQPQQPISQ; REGION 1..10: note = epitope) [compound 1482]
OUT: More preferably

IN: Supply Rank of partial sequence as epitope binding to IgE antibody value. Item: 1640 (DKVPFVPISG; REGION 1..10: note = epitope) [compound 1640]
OUT: Key
